# System: A549/ATCC NSCLC
# assayText: NCI-60 one-dose screen, 48 h (100 = growth as untreated, 0 = no growth, -100 = all killed)
# conditions: 10 µM unless noted
The panel holds about 83,000 compounds, 20% with a hit somewhere; the sample as a whole holds those more often.
measurementName: growth (%)

O=C1/C(=C/c2ccccc2)CCc2nc3ccccc3c(/C=C/c3ccc(Cl)cc3)c21 ... 93.5
COc1ccc(/C=C/c2c(C(=O)/C=C/c3ccc(F)cc3)c(C)nc3ccccc23)cc1 ... 91.6
Cc1ccc2nc3ccccc3c(NCc3ccccc3)c2c1 ... 40.2
Cc1ccc(-c2cc(-c3cccnc3)[nH]c(=O)c2C#N)cc1 ... 102
CCCCCCN(CCCCCC)c1ccc(/C=C2/SC(=O)N(c3nc(N4CCCC4)nc(N4CCCC4)n3)C2=O)c(C)c1 ... 54.2
